# Test system: LC-2/ad human lung adenocarcinoma, harboring the CCDC6-RET fusion protein
# method_notes: In vitro cell proliferation assay (CellTiterGlo), LC-2/ad
# Format: cell-based
# settings: antiproliferative activity, 144 h exposure
measurement_name: log10 IC50 (log10 of the value in µM)
# log10 transformed; quantity=IC50; unit=µM

Please state recorded log10 IC50 (tested on LC-2/ad human lung adenocarcinoma, harboring the CCDC6-RET fusion protein) of "Nc1ncnc2c1c(C#Cc1cccc(C(=O)NC3CC3)c1)cn2CCO"
-0.94

Please give the result for "Cn1cc(C#Cc2cccc(C(=O)NC3CC3)c2)c2c(N)ncnc21" too.
-0.62

Please give the result for "CCn1c(C)c(C#Cc2cccc(C(=O)NC3CC3)c2)c2c(N)ncnc21" too.
-1.92

Please give the result for "CCN1CCN(Cc2ccc(NC(=O)c3cccc(C#Cc4cn(C(C)C)c5ncnc(N)c45)c3)cc2C(F)(F)F)CC1" too.
-2.40

Please give the result for "Nc1ncnc2c1c(C#Cc1cc(F)cc(C(=O)NC3CC3)c1)cn2CC(F)(F)F" too.
-1.32

Please give the result for "Nc1ncnc2[nH]cc(C#Cc3cccc(NC(=O)c4cccc(F)c4)c3)c12" too.
-0.31

Please give the result for "Nc1ncnc2c1c(C#Cc1cccc(C(=O)NC3CC3)c1)cn2CC(F)(F)F" too.
-1.24

Please give the result for "CC(C)n1cc(C#Cc2cc(C(=O)NC3CC3)ccc2C#N)c2c(N)ncnc21" too.
-1.35

Please give the result for "Cc1ccc(C(=O)NC2CC2)cc1C#Cc1cn(C(C)C)c2ncnc(N)c12" too.
-1.72

----------
# Tested on: LC-2/ad human lung adenocarcinoma, harboring the CCDC6-RET fusion protein
# method_notes: In vitro cell proliferation assay (CellTiterGlo), LC-2/ad
# Assay type: cell-based
# settings: antiproliferative activity, 144 h exposure
Rule: measured IC50 below 0.03 µM gets TRUE; anything equal to or greater than 0.03 µM gets FALSE.

Quick check: IC50 of Nc1ncnc2c1c(C#Cc1cccc(C(=O)NC3CC3)c1)cn2CC1CCC1 [cmpd 95] under 0.03 µM?
FALSE

Please give the result for CC(C)n1cc(C#Cc2cc(F)cc(C(=O)NC3CC3)c2)c2c(N)ncnc21 [cmpd 58] too.
TRUE

Please give the result for Cc1ccc(C(=O)NC2CC2)cc1C#Cc1cn(CC(F)(F)F)c2ncnc(N)c12 [cmpd 52] too.
FALSE

Please give the result for CC1(Cn2cc(C#Cc3cccc(C(=O)NC4CC4)c3)c3c(N)ncnc32)COC1 [cmpd 88] too.
FALSE

Please give the result for Nc1ncnc2c1c(C#Cc1cccc(C(=O)NC3CC3)c1)cn2CC1CC1 [cmpd 99] too.
TRUE

----------
I'd be grateful if you could share measured IC50 for these entries.
# Tested on: LC-2/ad human lung adenocarcinoma, harboring the CCDC6-RET fusion protein
# method_notes: In vitro cell proliferation assay (CellTiterGlo), LC-2/ad
# Assay type: cell-based
# settings: antiproliferative activity, 144 h exposure

Can you share its IC50? I mean this molecule: "Nc1ncnc2c1c(C#Cc1cccc(C(=O)NC3CC3)c1)cn2CCF"
0.018 µM

Please give the result for "Nc1ncnc2c1c(C#Cc1cc(C(=O)NC3CC3)ccc1F)cn2CC(F)(F)F" too.
0.053 µM

Please give the result for "CC(C)n1cc(C#Cc2cc(C(=O)NC3CC3)ccc2F)c2c(N)ncnc21" too.
0.009 µM

----------
# Test system: LC-2/ad human lung adenocarcinoma, harboring the CCDC6-RET fusion protein
# method_notes: In vitro cell proliferation assay (CellTiterGlo), LC-2/ad
# Assay type: cell-based
# settings: antiproliferative activity, 144 h exposure
Rule: measured IC50 below 0.03 µM gets yes; anything equal to or greater than 0.03 µM gets no.

Quick check: IC50 of CC(C)n1cc(C#Cc2cccc(C(N)=O)c2)c2c(N)ncnc21 [cmpd 110] under 0.03 µM?
no

Please give the result for CN1CCC(n2cc(C#Cc3cccc(C(=O)NC4CC4)c3)c3c(N)ncnc32)C1 (stereo not drawn) [cmpd 89] too.
no

Please give the result for COc1cccc(-n2cc(C#Cc3cccc(C(=O)NC4CC4)c3)c3c(N)ncnc32)c1 [cmpd 70] too.
no

Please give the result for Nc1ncnc2c1c(C#Cc1cccc(C(=O)NC3CC3)c1)cn2-c1cccnc1 [cmpd 68] too.
yes

Please give the result for CC(C)n1cc(C#Cc2cccc(C(=O)NC3CC3)c2)c2c(N)ncnc21 [cmpd 40] too.
no

Please give the result for CCC(C)n1cc(C#Cc2cccc(C(=O)NC3CC3)c2)c2c(N)ncnc21 (stereo not drawn) [cmpd 85] too.
yes

Please give the result for CCN1CCN(Cc2ccc(NC(=O)Cc3cccc(C#Cc4c[nH]c5ncnc(N)c45)c3)cc2C(F)(F)F)CC1 [cmpd 12] too.
no

Please give the result for Nc1ncnc2[nH]cc(C#Cc3cccc(NC(=O)c4cccc(C(F)(F)F)c4)c3)c12 [cmpd 24] too.
no

Please give the result for CN1CCC(n2cc(C#Cc3cccc(C(=O)NC4CC4)c3)c3c(N)ncnc32)CC1 [cmpd 46] too.
yes

----------
# System: MZ-CRC-1 medullary thyroid carcinoma, harboring a mutated RET-M918T receptor
# method_notes: In vitro cell proliferation assay (CellTiterGlo), MZ-CRC-1
# Assay type: cell-based
# settings: Homo sapiens, antiproliferative activity, 144 h exposure
measurement_name: IC50 (µM)
A number alone suffices; assume µM.

Please state recorded IC50 (tested on MZ-CRC-1 medullary thyroid carcinoma, harboring a mutated RET-M918T receptor) of Nc1ncnc2c1c(C#Cc1cccc(C(=O)NC3CC3)c1)cn2CC(F)(F)F [cmpd 36]
0.166

Please give the result for Nc1ncnc2c1c(C#Cc1cccc(C(=O)NC3CC3)c1)cn2CCO [cmpd 37] too.
0.271

Please give the result for Cc1ccc(C(=O)NC2CC2)cc1C#Cc1cn(CC(F)(F)F)c2ncnc(N)c12 [cmpd 52] too.
0.201

Please give the result for Nc1ncnc2c1c(C#Cc1cc(C(=O)NC3CC3)ccc1F)cn2CC(F)(F)F [cmpd 54] too.
0.068

Please give the result for Nc1ncnc2c1c(C#Cc1cc(F)cc(C(=O)NC3CC3)c1)cn2CC(F)(F)F [cmpd 59] too.
0.04

Please give the result for CC(C)n1cc(C#Cc2cccc(C(=O)NC3CC3)c2)c2c(N)ncnc21 [cmpd 40] too.
0.049

Please give the result for Nc1ncnc2[nH]cc(C#Cc3cccc(NC(=O)c4cccc(C(F)(F)F)c4)c3)c12 [cmpd 24] too.
0.024

Please give the result for CCN1CCN(Cc2ccc(NC(=O)Cc3cccc(C#Cc4c[nH]c5ncnc(N)c45)c3)cc2C(F)(F)F)CC1 [cmpd 12] too.
0.222

Please give the result for Cn1cc(C#Cc2cccc(C(=O)NC3CC3)c2)c2c(N)ncnc21 [cmpd 93] too.
0.264
